Origin of the recorded values: patent US9902722B2

Assay read-out pIC50; system under study: UniProt:Q2M2I8.
pIC50: −log10 of the molar value.
MEASURED_QUANTITY: pIC50

- COMPOUND: "CC(C)C[C@](C)(N)COc1cnc(-c2ccnc3cc(F)ccc23)cc1C(F)F"
  TEST_VALUE: 9.09

a = COc1cnccc1-c1ccc(OC[C@@](C)(N)CC(C)C)c(C(F)(F)F)c1
b = CC(C)C[C@](C)(N)COc1ccc(-c2ccnc(Cl)c2F)nc1C(F)F
Recorded pIC50 values differ for a and b ; which one is higher? Write down the label attached to your selection.
a

I = CC(C)C[C@](C)(N)COc1ccc(-c2ccnc3ccccc23)cc1C(F)(F)F
II = CC(=O)Nc1cc(-c2cc(F)c(OC[C@@H](N)CC(C)C)cc2F)ccn1
Recorded pIC50 values differ for I and II ; which one is higher? Write down the label attached to your selection.
I

a = CC(C)C[C@](C)(N)COc1ncc(-c2ccnc3ccc(F)cc23)cc1C(F)F
b = Cc1cc(-c2ccnc3cc(Cl)ccc23)cnc1OC[C@@](C)(N)CC(C)C
Recorded pIC50 values differ for a and b ; which one is higher? Write down the label attached to your selection.
b
(b: 9.13, a: 8.92)

I = CC(C)C[C@](C)(N)COc1ccc(-c2ccnc(C(F)F)c2)cc1C(F)(F)F
II = CCc1cc(-c2cc(C(F)F)c(OC[C@@](C)(N)CC(C)C)cn2)ccn1
Of I and II , whose reported pIC50 is numerically smaller? Write down the label attached to your selection.
II

----------
# TESTED_SYSTEM: GST-Xa-hAAK1 (Homo sapiens (Human))
# Sequence (Q2M2I8 whole entry): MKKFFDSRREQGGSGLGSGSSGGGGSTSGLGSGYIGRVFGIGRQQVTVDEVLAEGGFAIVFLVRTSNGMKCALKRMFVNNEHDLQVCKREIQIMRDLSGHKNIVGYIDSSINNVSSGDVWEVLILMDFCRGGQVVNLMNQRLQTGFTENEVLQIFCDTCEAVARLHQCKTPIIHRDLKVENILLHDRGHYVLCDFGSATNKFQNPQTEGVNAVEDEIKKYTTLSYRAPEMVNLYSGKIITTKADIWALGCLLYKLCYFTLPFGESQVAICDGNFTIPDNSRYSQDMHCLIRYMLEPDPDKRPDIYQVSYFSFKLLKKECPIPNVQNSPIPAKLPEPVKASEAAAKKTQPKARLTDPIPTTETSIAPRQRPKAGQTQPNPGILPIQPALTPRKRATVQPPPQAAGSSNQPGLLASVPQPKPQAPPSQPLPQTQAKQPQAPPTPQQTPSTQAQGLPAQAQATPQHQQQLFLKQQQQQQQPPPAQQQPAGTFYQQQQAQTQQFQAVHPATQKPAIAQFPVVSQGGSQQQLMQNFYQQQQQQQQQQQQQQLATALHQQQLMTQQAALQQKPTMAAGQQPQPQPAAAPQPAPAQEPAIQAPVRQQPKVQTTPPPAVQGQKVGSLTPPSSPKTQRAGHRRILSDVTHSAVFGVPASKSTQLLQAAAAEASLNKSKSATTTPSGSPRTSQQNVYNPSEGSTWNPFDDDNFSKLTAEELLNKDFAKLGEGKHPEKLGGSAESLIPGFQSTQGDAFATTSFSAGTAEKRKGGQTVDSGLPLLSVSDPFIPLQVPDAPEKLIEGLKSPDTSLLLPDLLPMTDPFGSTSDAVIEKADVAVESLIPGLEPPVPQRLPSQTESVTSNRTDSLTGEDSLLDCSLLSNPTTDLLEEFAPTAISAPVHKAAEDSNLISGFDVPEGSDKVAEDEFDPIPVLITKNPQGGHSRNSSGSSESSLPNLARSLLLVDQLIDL
pIC50: −log10 of the molar value.
MEASURED_QUANTITY: pIC50

- COMPOUND: "CC(C)C[C@](C)(N)COc1cnc(-c2ccnc3cc(F)cc(F)c23)cc1Cl"
  TEST_VALUE: 9.14

a = COC(=O)Nc1cc(-c2ccc(OC[C@@H](N)CC(C)C)c(-c3ccno3)c2)ccn1
b = COC(=O)Nc1cc(-c2ccc(OCC(C)(N)CC(C)C)c(C)c2)ccn1 (stereo not shown)
Of a and b , whose reported pIC50 is numerically smaller? Write down the label attached to your selection.
b

----------
# TESTED_SYSTEM: GST-Xa-hAAK1 (Homo sapiens (Human));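 note: each compound tested across an eleven-point concentration series, with IC50 obtained through non-linear regression fitting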
MEASURED_QUANTITY: IC50 (nM)

- COMPOUND: "CC(C)C[C@](C)(N)COc1ccc(-c2ccnc(C(F)F)c2)cc1C#N [Example 36]"
  TESTED_SYSTEM: "GST-Xa-hAAK1 (Homo sapiens (Human))"
  IC50, nM: 0.89
- COMPOUND: "CC(C)C[C@](C)(N)COc1cnc(-c2ccnc3cc(F)ccc23)cc1Cl [Example 241]"
  TESTED_SYSTEM: "GST-Xa-hAAK1 (Homo sapiens (Human))"
  IC50, nM: 0.86
- COMPOUND: "COC(=O)Nc1cc(-c2ccc(OC[C@@](C)(N)CC(C)C)c(Cl)n2)ccn1 [Example 66]"
  TESTED_SYSTEM: "GST-Xa-hAAK1 (Homo sapiens (Human))"
  IC50, nM: 0.65
- COMPOUND: "Cc1cc(-c2ccnc3ccc(F)cc23)cnc1OC[C@@](C)(N)CC(C)C [Example 223]"
  TESTED_SYSTEM: "GST-Xa-hAAK1 (Homo sapiens (Human))"
  IC50, nM: 0.88
